Reference source for all entries: paper PMC8398766

- assay_name: in vivo
- Assay type: in vivo, BALB/c mice
- condition_notes: male, BALB/c, mouse, in vivo, po, 50 mg/kg
quantity: AUC (ng·h/mL)
Please state the figure in ng·h/mL; there is no need to write the unit.

O=c1cc(-c2ccccc2)oc2c(O)c(O)ccc12 [7,8-DHF, 7,8-dihydroxyflavone] yielded AUC of 20.9

----------
- study_target: TrkB receptor (Rattus norvegicus)
- Construct: host or cells: SN56 T48 cell line
- Sequence (Q63604 32-821): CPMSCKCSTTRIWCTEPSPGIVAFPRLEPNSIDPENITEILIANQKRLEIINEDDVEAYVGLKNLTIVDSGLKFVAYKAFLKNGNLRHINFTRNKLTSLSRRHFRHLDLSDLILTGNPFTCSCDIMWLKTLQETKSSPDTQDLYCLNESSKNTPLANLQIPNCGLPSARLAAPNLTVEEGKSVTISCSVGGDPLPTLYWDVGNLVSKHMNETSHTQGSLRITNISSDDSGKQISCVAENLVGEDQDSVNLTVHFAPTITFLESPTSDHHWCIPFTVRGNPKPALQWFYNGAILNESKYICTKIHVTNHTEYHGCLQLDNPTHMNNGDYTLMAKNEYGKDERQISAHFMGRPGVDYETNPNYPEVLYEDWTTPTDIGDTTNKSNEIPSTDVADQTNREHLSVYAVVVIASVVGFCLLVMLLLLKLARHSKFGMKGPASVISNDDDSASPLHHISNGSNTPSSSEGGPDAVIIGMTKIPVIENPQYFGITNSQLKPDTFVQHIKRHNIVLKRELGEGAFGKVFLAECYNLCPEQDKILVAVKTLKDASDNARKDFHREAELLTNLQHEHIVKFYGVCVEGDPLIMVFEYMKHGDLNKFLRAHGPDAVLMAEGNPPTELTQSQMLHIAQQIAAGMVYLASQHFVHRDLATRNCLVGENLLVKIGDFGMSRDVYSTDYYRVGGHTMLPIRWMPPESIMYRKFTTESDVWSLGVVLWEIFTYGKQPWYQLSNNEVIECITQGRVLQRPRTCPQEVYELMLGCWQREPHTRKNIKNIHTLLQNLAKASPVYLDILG
- assay_name: ELFI TrkB phosphorylation, orthosteric agonist mode, SN56 T48 cell line
- Format: cell-based
- condition_notes: TrkB phosphorylation (Tyr706), 15 min; no orthosteric activity given as 0
quantity: EC50 (µM)
Report only the number, with the unit µM understood.

Record summary for C=CC(C)(C)c1[nH]c2ccccc2c1C1=C(O)C(=O)C(c2c[nH]c3c(CC=C(C)C)cccc23)=C(O)C1=O [DMAQ-B1] : reported EC50 = 5

----------
- assay_name: Metabolic stability in mouse liver microsomes
- condition_notes: 1 μM, phase I
quantity: Clint MLM (μL·min^−1·mgprotein^−1)
Number in μL·min^−1·mgprotein^−1, nothing else.

Record CC(=O)NCCc1c[nH]c2ccc(O)cc12 . Reported Clint MLM: 1.5

The reported value for CN(C)c1ccc(-c2cc(=O)c3ccc(O)c(O)c3o2)cc1 in terms of Clint MLM is 365.1

Record O=C1NCCCC1C(=O)NCCc1c[nH]c2ccc(O)cc12 (centres unmarked) , field Clint MLM: 2.1

// field: Clint MLM; key: CC(C)CCNc1ncccc1C(=O)N1CCN(Cc2ccccc2)CC1 ; value = 1316.7

Lab note: measured Clint MLM of OCCN(CCO)c1ccc(C(c2ccc(Cl)cc2)c2ccc(N(CCO)CCO)cc2)cc1 was 4.8

----------
The following molecules are shown together with reported Papp A→B at 2 h values.
- assay_name: Caco-2 passive permeability
- condition_notes: human, Caco-2, with 5 μM elacridar and 20 μM cyclosporine A
Supply the numeric figure in ×10⁻⁶ cm/s, leaving out any unit text.

- molecule: "O=c1cc(-c2cccc(O)c2)oc2c(O)c(O)ccc12 [7,8,3′-THF, 7,8,3′-trihydroxyflavone]"
  units_label: "×10⁻⁶ cm/s"
  recorded_measurement: 3

Next up:
Value of Papp A→B at 2 h reported for the molecule COc1ccc(-c2cc3cccc(O)c3c(=O)o2)cc1 is 1.6

----------
- assay_name: in vitro
- condition_notes: human, Caco-2
quantity: Papp A→B at 2 h (×10⁻⁶ cm/s)
Give the value in ×10⁻⁶ cm/s but do not write ×10⁻⁶ cm/s after it.

Just so you know, measured Papp A→B at 2 h for O=c1cc(-c2ccccc2)oc2c(O)c(O)ccc12 [7,8-DHF, 7,8-dihydroxyflavone] came out at 22.8

----------
- System: Caco-2 monolayer
- assay_name: Caco-2 passive permeability
- condition_notes: Caco-2, basal to apical, 2 h
Listing of entries alongside the reported Papp,BA.

Worked cases, answers included:
- compound: "O=C(NCCO)c1cc(C(=O)NCCO)cc(C(=O)NCCO)c1"
  study_target: "Caco-2 monolayer"
  recorded_measurement: "0.12 10^−6·cm/s"
- compound: "O=C1NCCCC1C(=O)NCCc1c[nH]c2ccc(O)cc12 (stereo not drawn)"
  study_target: "Caco-2 monolayer"
  recorded_measurement: "2.29 10^−6·cm/s"

According to the records, this compound CC(=O)NCCc1c[nH]c2ccc(O)cc12 displays Papp,BA of 8.00 10^−6·cm/s

----------
- assay_name: PAMPA
- condition_notes: PAMPA, pH 7.4
quantity: Papp at 4 h, 10 μM (×10⁻⁶ cm/s)
# unit: ×10⁻⁶ cm/s | format: bare number

The value of Papp at 4 h, 10 μM measured for the molecule O=c1cc(-c2cccc(O)c2)oc2c(O)c(O)ccc12 [7,8,3′-THF, 7,8,3′-trihydroxyflavone] turned out to be 1.1

----------
- assay_name: in vitro
- condition_notes: human, Caco-2
quantity: Papp B→A at 2 h (×10⁻⁶ cm/s)
Give just the numeric value; ×10⁻⁶ cm/s need not be written.

O=c1cc(-c2ccccc2)oc2c(O)c(O)ccc12 [7,8-DHF, 7,8-dihydroxyflavone] has a reported Papp B→A at 2 h of 12.4

----------
- assay_name: Metabolic stability in mouse liver microsomes
- condition_notes: compared with verapamil
quantity: Metabolic stability in MLM (classification)

- molecule: "COc1ccc(-c2cc3cccc(O)c3c(=O)o2)cc1 [Isocumarin]"
  recorded_measurement: "highly unstable"
- molecule: "CC(C)CCNc1ncccc1C(=O)N1CCN(Cc2ccccc2)CC1 [NSI-189]"
  recorded_measurement: "highly unstable"

----------
- assay_name: in vitro
- condition_notes: PAMPA, pH 7.4
quantity: Papp at 4 h, 10 μM (nm/s)
Output spec: scalar in nm/s, unitless text.

Papp at 4 h, 10 μM recorded for this molecule, O=c1cc(-c2ccccc2)oc2c(O)c(O)ccc12 [7,8-DHF, 7,8-dihydroxyflavone] , is 158

----------
- assay_name: Metabolic stability in human liver microsomes
- condition_notes: compared with verapamil
quantity: Metabolic stability in HLM (classification)

- smiles_string: "CN(C)c1ccc(-c2cc(=O)c3ccc(O)c(O)c3o2)cc1"
  recorded_measurement: "highly unstable"
- smiles_string: "CC(C)CCNc1ncccc1C(=O)N1CCN(Cc2ccccc2)CC1"
  recorded_measurement: "highly unstable"
- smiles_string: "COc1ccc(-c2cc3cccc(O)c3c(=O)o2)cc1"
  recorded_measurement: "highly unstable"

----------
- System: Caco-2 monolayer
- assay_name: Caco-2 passive permeability
- condition_notes: Caco-2, apical to basal, 2 h
quantity: Papp,AB

Known Papp,AB results, listed for orientation:
- compound: "CC(=O)NCCc1c[nH]c2ccc(O)cc12"
  recorded_measurement: "8.86 10^−6·cm/s"
- compound: "CN(C)c1ccc(-c2cc(=O)c3ccc(O)c(O)c3o2)cc1"
  recorded_measurement: "15.61 10^−6·cm/s"
- compound: "OCCN(CCO)c1ccc(C(c2ccc(Cl)cc2)c2ccc(N(CCO)CCO)cc2)cc1"
  recorded_measurement: "6.47 10^−6·cm/s"

What the record says about O=C1NCCCC1C(=O)NCCc1c[nH]c2ccc(O)cc12 (centres unmarked) : Papp,AB is 1.11 10^−6·cm/s

Papp,AB reported for this compound CC(C)CCNc1ncccc1C(=O)N1CCN(Cc2ccccc2)CC1 : 28.23 10^−6·cm/s

----------
- assay_name: Metabolic stability in human liver microsomes
- condition_notes: 1 μM, phase I
API: label(entry) gives 1 (yes) if the entry's Clint HLM is strictly smaller than 4 μL·min^−1·mgprotein^−1; on equality or larger values it gives 0 (no).

- smiles_string: "OCCN(CCO)c1ccc(C(c2ccc(Cl)cc2)c2ccc(N(CCO)CCO)cc2)cc1"
  class: "0 (no)"
- smiles_string: "CC(C)CCNc1ncccc1C(=O)N1CCN(Cc2ccccc2)CC1"
  class: "0 (no)"
- smiles_string: "CC(=O)NCCc1c[nH]c2ccc(O)cc12"
  class: "1 (yes)"
- smiles_string: "O=C(NCCO)c1cc(C(=O)NCCO)cc(C(=O)NCCO)c1"
  class: "1 (yes)"

[Q] Bench note: check whether CN(C)c1ccc(-c2cc(=O)c3ccc(O)c(O)c3o2)cc1 shows Clint HLM below 4 μL·min^−1·mgprotein^−1
[A] 0 (no)

----------
- assay_name: PAMPA
- condition_notes: 10 μM, 4 h
PAMPA values by entry

- smiles_string: "OCCN(CCO)c1ccc(C(c2ccc(Cl)cc2)c2ccc(N(CCO)CCO)cc2)cc1"
  quantity: "PAMPA"
  recorded_measurement: "2.36 10^−6·cm/s"
- smiles_string: "CC(=O)NCCc1c[nH]c2ccc(O)cc12"
  quantity: "PAMPA"
  recorded_measurement: "<0.01 10^−6·cm/s"

# context switch: different compound, same PAMPA
The reported value for COc1ccc(-c2cc3cccc(O)c3c(=O)o2)cc1 in terms of PAMPA is 0.22 10^−6·cm/s

----------
- Tested on: Caco-2 monolayer
- assay_name: Caco-2 passive permeability
- condition_notes: Caco-2, basal to apical, 2 h
The reader will find reported Papp,BA values listed item by item below.

- smiles_string: "CN(C)c1ccc(-c2cc(=O)c3ccc(O)c(O)c3o2)cc1"
  Papp,BA: "9.03 10^−6·cm/s"
- smiles_string: "OCCN(CCO)c1ccc(C(c2ccc(Cl)cc2)c2ccc(N(CCO)CCO)cc2)cc1"
  Papp,BA: "4.97 10^−6·cm/s"

Lab book: Papp,BA of CC(C)CCNc1ncccc1C(=O)N1CCN(Cc2ccccc2)CC1 noted as 13.22 10^−6·cm/s
